B1: Segment polarity protein dishevelled homolog DVL-3, residues 2 to 81; numbered along this chain, Q92997 (parent)
chain: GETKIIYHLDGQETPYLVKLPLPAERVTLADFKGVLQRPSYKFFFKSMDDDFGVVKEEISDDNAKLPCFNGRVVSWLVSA

Variants of: B1
Experiment: abundance fitness (aPCA) (normalised: wild type 0, dead -1); higher = more abundant; growth selection in yeast, the domain comes from the species named
Details: Homo sapiens
Note to self: class = bucket of abundance fitness, per low bracket: < -0.5; middle bracket: ≥ -0.5 and < -0.2; high bracket: ≥ -0.2

mutation id: K33T
class name: low bracket

mutation id: L77T
class name: middle bracket

mutation id: K42T
class name: middle bracket

mutation id: P23Q
class name: low bracket

mutation id: L20W
class name: middle bracket

mutation id: K42S
class name: low bracket

mutation id: V55S
class name: high bracket

mutation id: S75I
class name: middle bracket

mutation id: V73L
class name: low bracket

mutation id: M48T
class name: high bracket

mutation id: V78T
class name: high bracket

mutation id: V55I
class name: high bracket

mutation id: L77D
class name: middle bracket

mutation id: K46Y
class name: middle bracket

mutation id: R72Q
class name: high bracket

mutation id: A30H
class name: low bracket

These measurements were taken from the Human Domainome abundance scans (Beltran et al. 2025).
